# EC50 per record follows
# Target desc: human RORgt nuclear receptor (RORgT ligand binding domain protein) (Homo sapiens, UniProt P51449)
# Sequence (P51449 with tags, fused parts or gaps): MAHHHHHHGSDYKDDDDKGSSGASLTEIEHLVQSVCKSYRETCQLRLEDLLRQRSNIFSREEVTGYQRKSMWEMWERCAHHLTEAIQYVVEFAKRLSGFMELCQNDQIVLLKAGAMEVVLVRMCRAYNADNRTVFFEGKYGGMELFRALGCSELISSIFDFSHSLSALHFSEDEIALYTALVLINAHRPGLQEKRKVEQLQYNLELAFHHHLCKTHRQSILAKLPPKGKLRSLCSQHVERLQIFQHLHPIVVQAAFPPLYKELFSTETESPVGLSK
# Method notes: ROR-gamma binding assay (Scintillation Proximity Assay, displacement of [3H]-25-hydroxycholesterol)
# Measurement parameters: EC50, SPA, 15 nM [3H]-25-Hydroxycholesterol, RORgT LBD 12 nM
Numeric answer only, unit nM assumed.

{"Compound": "Cc1cc(CN2CCN(C(=O)OC(C)(C)C)[C@@H](C)C2)c(C)c(Nc2nnc(-c3cnsn3)o2)c1", "EC50 / nM": 23.3}

Per the record, Cc1cc(CN2CCN(C(=O)C3CC3C)[C@@H](C)C2)c(C)c(Nc2nnc([C@@H](C)O)o2)c1 (stereo partly drawn) has EC50 of 125

Per the record, `Cc1c(CN2CCN(C(=O)OC(C)C)[C@@H](C)C2)cc(Cl)cc1Nc1nnc([C@@H]2CC(=O)N2)o1` has EC50 of 68.2

Per the record, `Cc1c(CN2CCN(C(=O)C3CCCC3)[C@@H](C)C2)cc(Cl)cc1Nc1nnc(CC#N)o1` has EC50 of 21.2

Per the record, `Cc1cc(CN2CCN(C(=O)OC(C)C)[C@@H](C)C2)c(C)c(Nc2nnc(-c3nonc3C)o2)c1` has EC50 of 16.3

Per the record, `Cc1cc(CN2CCN(C(=O)OC(C)(C)C)[C@@H](C)C2)c(C)c(Nc2nnc([C@H]3C[C@@H](O)C3)o2)c1` has EC50 of 37.8

Per the record, `Cc1cc(CN2CCN(C(=O)C3CCC3)[C@@H](C)C2)c(C)c(Nc2nnc(CC#N)o2)c1` has EC50 of 63.8

Per the record, `CC[C@H](O)c1nnc(Nc2cc(C)cc(CN3CCN(C(=O)OC(C)C)[C@@H](C)C3)c2C)o1` has EC50 of 20.7

Per the record, `CC[C@H](N)c1nnc(Nc2cc(Cl)cc(CN3CCN(C(=O)OC(C)C)[C@@H](C)C3)c2C)o1` has EC50 of 49.7

====

# EC50 per record follows
# Tested on: IL-17A in Human peripheral mononuclear cells
# Method notes: Human PBMC IL-17A assay
# Format: cell-based
# Measurement parameters: 72 h, EC50, antiCD3/antiCD28-coated beads, 3 days, alpha-LISA
Numeric answer only, unit nM assumed.

Per the record, Cc1cc(CN2CCN(C(=O)OC(C)(C)C)[C@@H](C)C2)c(C)c(Nc2nnc(-c3cnnn3C)o2)c1 [Example 30] has EC50 of 93.6

Per the record, Cc1cc(CN2CCN(C(=O)C3CCC3)[C@@H](C)C2)c(C)c(Nc2nnc([C@@H](C)O)o2)c1 [Example 19] has EC50 of 117

Per the record, Cc1c(CN2CCN(C(=O)OC(C)C)[C@@H](C)C2)cc(Cl)cc1Nc1nnc([C@H](C)O)o1 [Example 63] has EC50 of 62.1

Per the record, Cc1cc(CN2CCN(C(=O)OC(C)C)[C@@H](C)C2)c(C)c(Nc2nnc([C@H]3C[C@@H](O)C3)o2)c1 [Example 37] has EC50 of 43.7

Per the record, Cc1cc(CN2CCN(C(=O)OC(C)C)[C@@H](C)C2)c(C)c(Nc2nnc([C@@H]3CNC(=O)C3)o2)c1 [Example 83] has EC50 of 123

Per the record, Cc1cc(CN2CCN(C(=O)OC(C)C)[C@@H](C)C2)c(C)c(Nc2nnc([C@@H]3CNC(=O)O3)o2)c1 [Example 52] has EC50 of 134

Per the record, Cc1cc(CN2CCN(C(=O)OC(C)C)[C@@H](C)C2)c(C)c(Nc2nnc([C@@H](O)CO)o2)c1 [Example 72] has EC50 of 262

====

# log10 EC50 per record follows
# Tested on: IL-17A levels in human peripheral blood
# Method notes: tissue or blood
# Assay type: cell-based
# Measurement parameters: 72 h, read-out: Human Whole blood IL-17A (nM)
Field: value | Transform: log10 | Quantity: EC50 | Unit: nM

{"Compound": "Cc1c(CN2CCN(C(=O)c3ccccc3)[C@@H](C)C2)cc(Cl)cc1Nc1nnc(C2(O)CC2)o1 [Example 6]", "log10 EC50": 2.70}

Per the record, Cc1c(CN2CCN(C(=O)OC(C)C)[C@@H](C)C2)cc(Cl)cc1Nc1nnc(C2CNC(=O)C2)o1 (some centres unmarked) [Example 67] has log10 EC50 of 2.78

Per the record, Cc1cc(CN2CCN(C(=O)C3CCCC3)[C@@H](C)C2)c(C)c(Nc2nnc([C@H]3NCC[C@H]3O)o2)c1 [Example 78] has log10 EC50 of 2.20

Per the record, Cc1cc(CN2CCN(C(=O)OC(C)C)[C@@H](C)C2)c(C)c(Nc2nnc([C@@H](C)O)o2)c1 [Example 56] has log10 EC50 of 1.96

Per the record, Cc1c(CN2CCN(C(=O)OC(C)(C)C)[C@@H](C)C2)cc(Cl)cc1Nc1ncc(CO)o1 [Example 74] has log10 EC50 of 2.98

Per the record, Cc1cc(CN2CCN(C(=O)OC(C)(C)C)[C@@H](C)C2)c(C)c(Nc2nnc(-c3ccno3)o2)c1 [Example 32] has log10 EC50 of 2.59

Per the record, Cc1cc(CN2CCN(C(=O)O[C@H](C)C(F)(F)F)[C@@H](C)C2)c(C)c(Nc2nnc([C@@H](O)CO)o2)c1 [Example 75] has log10 EC50 of 2.20

Per the record, COCc1nnc(Nc2cc(Cl)cc(CN3CCN(C(=O)C4CCC4)[C@@H](C)C3)c2C)o1 [Example 12] has log10 EC50 of 2.48

Per the record, Cc1cc(CN2CCN(C(=O)OC(C)(C)C)[C@@H](C)C2)c(C)c(Nc2nnc(-c3cnnn3C)o2)c1 [Example 30] has log10 EC50 of 2.38

Per the record, Cc1c(CN2CCN(C(=O)OC(C)C)[C@@H](C)C2)cc(Cl)cc1Nc1nnc(C2(CO)CC2)o1 [Example 46] has log10 EC50 of 2.51

Per the record, COCc1nnc(Nc2cc(Cl)cc(CN3CCN(C(=O)C4CCC(F)(F)C4)[C@@H](C)C3)c2C)o1 (some centres unmarked) [Example 10] has log10 EC50 of 2.47

====

# Test system: IL-17A in Human peripheral mononuclear cells
# Method notes: Human PBMC IL-17A assay
# Type: cell-based
# Measurement parameters: 72 h, EC50, antiCD3/antiCD28-coated beads, 3 days, alpha-LISA
Quantity kind: EC50 (nM)
Numeric answer only, unit nM assumed.

Consider the following illustrative entries.
{"Molecule": "COCc1nnc(Nc2cc(Cl)cc(CN3CCN(C(=O)C4CCC(F)(F)C4)[C@@H](C)C3)c2C)o1 (stereo partly shown)", "EC50 (nM)": 173}
{"Molecule": "Cc1cc(CN2CCN(C(=O)C3CCCC3)[C@@H](C)C2)c(C)c(Nc2nnc([C@H]3NCC[C@H]3O)o2)c1", "EC50 (nM)": 95.9}
{"Molecule": "Cc1c(CN2CCN(C(=O)OCC(F)(F)F)[C@@H](C)C2)cc(Cl)cc1Nc1nnc(CC#N)o1", "EC50 (nM)": 308}
{"Molecule": "Cc1cc(CN2CCN(C(=O)OC(C)C)[C@@H](C)C2)c(C)c(Nc2nnc(C[C@@H](O)C(F)(F)F)o2)c1", "EC50 (nM)": 46.5}
{"Molecule": "CC[C@@H](C)OC(=O)N1CCN(Cc2cc(C)cc(Nc3nnc([C@H]4NCC[C@H]4O)o3)c2C)C[C@@H]1C", "EC50 (nM)": 46}
{"Molecule": "Cc1cc(CN2CCN(C(=O)OC(C)C)[C@@H](C)C2)c(C)c(Nc2nnc([C@H]3NCC[C@H]3O)o2)c1", "EC50 (nM)": 180}

Per the record, `CC[C@H](N)c1nnc(Nc2cc(Cl)cc(CN3CCN(C(=O)OC(C)C)[C@@H](C)C3)c2C)o1` has EC50 of 58.5

====

# EC50 per record follows
# System: IL-17A in Human peripheral mononuclear cells
# Method notes: Human PBMC IL-17A assay
# Format: cell-based
# Measurement parameters: 72 h, EC50, antiCD3/antiCD28-coated beads, 3 days, alpha-LISA
Numeric answer only, unit nM assumed.

Consider the following illustrative entries.
{"Compound": "Cc1cc(CN2CCN(C(=O)C3CCC3)[C@@H](C)C2)c(C)c(Nc2nnc([C@H](C)O)o2)c1", "EC50 (nM)": 189}
{"Compound": "Cc1cc(CN2CCN(C(=O)O[C@H](C)C(F)(F)F)[C@@H](C)C2)c(C)c(Nc2nnc([C@@H](O)CO)o2)c1", "EC50 (nM)": 52.9}
{"Compound": "Cc1cc(CN2CCN(C(=O)C3CCC3)[C@@H](C)C2)c(C)c(Nc2nnc(C)o2)c1", "EC50 (nM)": 185}
{"Compound": "Cc1cc(CN2CCN(C(=O)OC(C)C)[C@@H](C)C2)c(C)c(Nc2nnc(C3CCNC(=O)C3)o2)c1 (stereo partly drawn)", "EC50 (nM)": 373}
{"Compound": "CCC(F)(F)C(=O)N1CCN(Cc2cc(C)cc(Nc3nnc([C@@H](C)O)o3)c2C)C[C@@H]1C", "EC50 (nM)": 180}
{"Compound": "CC[C@H](C)C(=O)N1CCN(Cc2cc(Cl)cc(Nc3nnc(COC)o3)c2C)C[C@@H]1C", "EC50 (nM)": 92.6}

Per the record, `Cc1cc(CN2CCN(C(=O)OC(C)(C)C)[C@@H](C)C2)c(C)c(Nc2nnc(-c3ccno3)o2)c1` has EC50 of 101

Per the record, `Cc1cc(CN2CCN(C(=O)OC(C)C)[C@@H](C)C2)c(C)c(Nc2nnc([C@@H]3CCCN3S(C)(=O)=O)o2)c1` has EC50 of 58.7

Per the record, `Cc1cc(CN2CCN(C(=O)OC(C)(C)C)[C@@H](C)C2)c(C)c(Nc2nnc(-c3ccnn3C)o2)c1` has EC50 of 63.5

The values you see were collected from patent US10934282B2.
